Origin of values: patent US12371428B2

Form field: IC50 (one value per entry).
TEST_TARGET: KDR (phospho-KDR, VEGF165-stimulated HUVEC cells) (Homo sapiens (Human), UniProt P35968)
Sequence (P35968 20-1356): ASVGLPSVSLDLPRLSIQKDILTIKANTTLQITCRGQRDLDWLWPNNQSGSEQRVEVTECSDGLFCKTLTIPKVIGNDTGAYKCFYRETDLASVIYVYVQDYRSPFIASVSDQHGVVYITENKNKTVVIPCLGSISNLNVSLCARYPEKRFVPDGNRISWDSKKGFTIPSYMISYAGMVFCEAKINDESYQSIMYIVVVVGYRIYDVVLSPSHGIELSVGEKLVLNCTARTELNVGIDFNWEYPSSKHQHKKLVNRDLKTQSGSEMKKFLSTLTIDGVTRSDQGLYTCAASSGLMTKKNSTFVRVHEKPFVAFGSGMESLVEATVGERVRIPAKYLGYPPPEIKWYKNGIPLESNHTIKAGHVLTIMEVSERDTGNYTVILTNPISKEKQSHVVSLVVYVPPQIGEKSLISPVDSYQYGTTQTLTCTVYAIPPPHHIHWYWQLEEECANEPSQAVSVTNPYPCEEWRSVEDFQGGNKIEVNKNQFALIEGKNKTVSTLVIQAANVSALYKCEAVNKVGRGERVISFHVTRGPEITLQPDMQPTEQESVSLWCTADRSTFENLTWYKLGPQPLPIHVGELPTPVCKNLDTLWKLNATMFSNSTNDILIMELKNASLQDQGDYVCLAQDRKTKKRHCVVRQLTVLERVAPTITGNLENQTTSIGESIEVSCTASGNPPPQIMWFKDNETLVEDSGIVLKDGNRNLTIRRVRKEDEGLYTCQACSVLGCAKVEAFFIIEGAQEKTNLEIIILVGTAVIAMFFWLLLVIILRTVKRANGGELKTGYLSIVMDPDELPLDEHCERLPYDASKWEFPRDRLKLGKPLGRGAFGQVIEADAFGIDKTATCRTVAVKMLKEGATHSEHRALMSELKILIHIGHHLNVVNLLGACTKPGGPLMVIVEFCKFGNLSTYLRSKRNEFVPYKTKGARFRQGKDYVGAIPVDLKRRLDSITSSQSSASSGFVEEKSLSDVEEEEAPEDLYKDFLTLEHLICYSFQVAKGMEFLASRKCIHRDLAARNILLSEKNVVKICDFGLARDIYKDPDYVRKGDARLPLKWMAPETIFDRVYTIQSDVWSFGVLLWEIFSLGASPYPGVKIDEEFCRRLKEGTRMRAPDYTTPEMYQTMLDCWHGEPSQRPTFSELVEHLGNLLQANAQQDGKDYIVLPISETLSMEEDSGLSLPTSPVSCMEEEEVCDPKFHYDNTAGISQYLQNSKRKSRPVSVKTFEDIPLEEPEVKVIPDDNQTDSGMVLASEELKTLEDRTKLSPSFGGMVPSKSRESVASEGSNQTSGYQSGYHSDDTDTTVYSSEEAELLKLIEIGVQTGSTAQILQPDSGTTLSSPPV
TEST_SUMMARY: KDR autophosphorylation ELISA in HUVEC cells (Example G)
Type: cell-based
CONDITION_DESCRIPTION: cellular activity; KDR autophosphorylation ELISA in HUVEC cells
Protocol: Human umbilical vein endothelial cells or HUVEC (Lonza #C2519A) were seeded at 2×10^4 cells/well onto 96-well plates (Corning #3904), in EGM-2 growth medium (Lonza #CC-3162) containing 1% Penicillin Streptomycin (Thermo Fisher #15140-122). […] IC50 values were calculated by nonlinear regression analysis using a 4-parameter logistic curve fit in ActivityBase XE (IDBS).

Below, 3 molecules whose answers are already recorded.
Query: Requested field: IC50. Item: COc1cc2nccc(Oc3ccc(NC(=O)c4cn5c(c(-c6ccc(F)cc6)c4=O)CCC5)cc3F)c2nc1OC [Compound 362]
Response: < 100 nM

Query: Requested field: IC50. Item: COc1cc2nccc(Oc3ccc(NC(=O)c4nnc(C)c(-c5ccc(F)cc5)c4OC(C)C)cc3F)c2cc1OC [Compound 574]
Response: < 100 nM

Query: Requested field: IC50. Item: COc1ccc2nccc(Oc3ccc(NC(=O)c4ccc(C)n(-c5ccc(F)cc5C)c4=O)cc3)c2n1 [Compound 276]
Response: < 100 nM

Attention now shifts to the item below.
Query: Requested field: IC50. Item: COc1cc2nccc(Oc3ccc(NC(=O)c4cn(-c5cc[nH]n5)cc(-c5ccc(F)cc5)c4=O)cc3F)c2nc1OC [Compound 61]
Response: > 300 nM
